Origin of the recorded values: paper PMC7731379

assay: in vitro; conditions: African green monkey, Cytotoxic activity IC50, Vero
In plain terms, low IC50 at 48 h, meaning strictly below 10 µM, gives yes (1), and everything else gives no (0).

Challenge: Please state whether IC50 at 48 h is below 10 µM for CC1=C(C)C(=O)OC(C(C)C2CC=C3C4CC5OC56C(O)C=CC(=O)C6(C)C4CCC32C)C1 (centres unmarked)
Response given: yes (1)

Challenge: Please state whether IC50 at 48 h is below 10 µM for CC1=C(C)C(=O)OC(C(C)C2=CCC3C4CC=C5C(O)C=CC(=O)C5(C)C4CCC23C)C1 (centres unmarked)
Response given: no (0)

Challenge: Please state whether IC50 at 48 h is below 10 µM for CC1=C(CO)C(=O)OC(C(C)C2(O)CCC3C4CC=C5C(O)C=CC(=O)C5(C)C4CCC32C)C1 (centres unmarked)
Response given: no (0)

Challenge: Please state whether IC50 at 48 h is below 10 µM for CC1=C(CO)C(=O)OC(C(C)=C2C(O)CC3C4CC5OC56C(O)C=CC(=O)C6(C)C4CCC23C)C1 (centres unmarked)
Response given: no (0)

Challenge: Please state whether IC50 at 48 h is below 10 µM for CC1=C(CO)C(=O)OC(C(C)C2CCC3C4CC=C5C(O)C=CC(=O)C5(C)C4CCC23C)C1 (centres unmarked)
Response given: no (0)

Challenge: Please state whether IC50 at 48 h is below 10 µM for CC1=C(C)C(=O)OC(C(C)C2CCC3C4CC5OC56C(O)C=CC(=O)C6(C)C4CCC23C)C1 (centres unmarked)
Response given: yes (1)

Challenge: Please state whether IC50 at 48 h is below 10 µM for CC1=C(CO)C(=O)OC(C(C)C2CCC3C4CC(O)C5(O)C(O)C=CC(=O)C5(C)C4CCC23C)C1 (centres unmarked) [Compound 26, 2,3-dehydrosomnifericin]
Response given: no (0)

Challenge: Please state whether IC50 at 48 h is below 10 µM for CC1=C(CO)C(=O)OC(C(C)C2(O)CCC3C4CC5OC56C(O)C=CC(=O)C6(C)C4CCC32C)C1 (centres unmarked)
Response given: no (0)

Challenge: Please state whether IC50 at 48 h is below 10 µM for CC1=C(CO)C(=O)OC(C(C)C2CCC3C4CC(Cl)C5(O)C(O)C=CC(=O)C5(C)C4CCC23C)C1 (stereo not drawn) [Compound 27, 6α-chloro-5β-hydroxywithaferin A]
Response given: yes (1)

Challenge: Please state whether IC50 at 48 h is below 10 µM for CC(=O)OCC1=C(C)CC(C(C)C2CCC3C4CC5OC56C(O)C=CC(=O)C6(C)C4CCC23C)OC1=O (centres unmarked)
Response given: yes (1)
